tested on: Pseudomonas aeruginosa PAO1; assay: Evaluation test for disinfecting effect, broth dilution method CLSI(M7-A7)2006; format: cell-based; settings: PAO1, 18 h, read-out: MIC (µg/mL) R
Where a name gives a salt, the structure may show the parent alone.
Listed here: items and their measured MIC.

Below: 3 compounds and their reported MIC.
compound="CCCCCCCCCC(=O)NC1CCNCC1 [Hydrochloride salt of Compound 1b-2, N-(piperidin-4-yl) decanoyl amide]" assay_target="Pseudomonas aeruginosa PAO1" result="≤ 512 µg/mL"
compound="CCCCCCCCCC(=O)NC1CCNC1 (stereo not shown) [Hydrochloride salt of Compound 1a-2, N-(pyrrolidin-3-yl) decanoyl amide]" assay_target="Pseudomonas aeruginosa PAO1" result="≤ 512 µg/mL"
compound="CCCCCCCCCCCC(=O)NC1CCNC1 (stereo not shown) [Hydrochloride salt of Compound 1a-1, N-(pyrrolidin-3-yl) dodecanoyl amide]" assay_target="Pseudomonas aeruginosa PAO1" result="≤ 32 µg/mL"

Here is another compound to look at.
Complete the entry with MIC for CCCCCCCCCCCC(=O)NC1CCNCC1 [Hydrochloride salt of Compound 1b-1, N-(piperidin-4-yl) dodecanoyl amide]
≤ 32 µg/mL

====

test system: Pseudomonas aeruginosa ATCC 27853; experiment: Evaluation test for disinfecting effect, broth dilution method CLSI(M7-A7)2006; format: cell-based; conditions: ATCC27853, I (Intermediate): concentration that cannot be measured visually, 37°C, 18 hours, read-out: MIC (µg/mL) I
observed property: MIC (µg/mL)

Below: 2 molecules and their reported MIC.
molecule=NC[C@H]1O[C@H](O[C@H]2[C@H](O)[C@@H](O[C@H]3O[C@H](CO)[C@@H](O)[C@H](N)[C@H]3O)[C@H](N)C[C@@H]2N)[C@H](N)C[C@@H]1O uom=µg/mL number=0.5
molecule="CC1(C)S[C@@H]2[C@H](NC(=O)C(C(=O)O)c3ccccc3)C(=O)N2[C@H]1C(=O)O (stereo partly shown)" uom=µg/mL number=128

1 = CC(C)(O/N=C(\C(=O)N[C@@H]1C(=O)N2C(C(=O)[O-])=C(C[n+]3ccccc3)CS[C@H]12)c1csc(N)n1)C(=O)O
2 = CC[C@H]1OC(=O)[C@H](C)[C@@H](O[C@H]2C[C@@](C)(OC)[C@@H](O)[C@H](C)O2)[C@H](C)[C@@H](O[C@@H]2O[C@H](C)C[C@H](N(C)C)[C@H]2O)[C@](C)(O)C[C@@H](C)CN(C)[C@H](C)[C@@H](O)[C@]1(C)O
Sorting ascending by MIC, which comes first: 1 or 2 ? # answer = label of selected item
1
(1: 2 µg/mL, 2: 64 µg/mL)

====

Listed here: items and their measured MIC.
test system: Staphylococcus aureus Methicillin resistant (MRSA) ATCC 43300; experiment: Evaluation test for disinfecting effect, broth dilution method CLSI(M7-A7)2006; format: cell-based; details: R (Resistant): concentration that caused less than 80% reduction in diameter of the aggregation, 37°C, 18 hours, read-out: MIC (µg/mL) R

Below: 3 compounds and their reported MIC.
compound=CC(C)(O/N=C(\C(=O)N[C@@H]1C(=O)N2C(C(=O)[O-])=C(C[n+]3ccccc3)CS[C@H]12)c1csc(N)n1)C(=O)O observed_property=MIC result="≤ 4 µg/mL"
compound=CC[C@H]1OC(=O)[C@H](C)[C@@H](O[C@H]2C[C@@](C)(OC)[C@@H](O)[C@H](C)O2)[C@H](C)[C@@H](O[C@@H]2O[C@H](C)C[C@H](N(C)C)[C@H]2O)[C@](C)(O)C[C@@H](C)CN(C)[C@H](C)[C@@H](O)[C@]1(C)O observed_property=MIC result="≤ 1020 µg/mL"
compound="CC1(C)S[C@@H]2[C@H](NC(=O)C(C(=O)O)c3ccccc3)C(=O)N2[C@H]1C(=O)O (stereo partly shown)" observed_property=MIC result="≤ 16 µg/mL"

Here is another compound to look at.
Complete the entry with MIC for NC[C@H]1O[C@H](O[C@H]2[C@H](O)[C@@H](O[C@H]3O[C@H](CO)[C@@H](O)[C@H](N)[C@H]3O)[C@H](N)C[C@@H]2N)[C@H](N)C[C@@H]1O
≤ 64 µg/mL

====

test system: Staphylococcus aureus Methicillin resistant (MRSA) ATCC 43300; assay: Evaluation test for disinfecting effect, broth dilution method CLSI(M7-A7)2006; assay type: cell-based; conditions: 18 h, read-out: MIC (µg/mL) R
Structures can show the parent of a compound that is named as a salt.
observed property: MIC

Below: 3 molecules and their reported MIC.
molecule="CCCCCCCCCC(=O)NC1CCNC1 (stereo not shown) [Hydrochloride salt of Compound 1a-2, N-(pyrrolidin-3-yl) decanoyl amide]" result="≤ 128 µg/mL"
molecule="CCCCCCCCCCCC(=O)NC1CCNCC1 [Hydrochloride salt of Compound 1b-1, N-(piperidin-4-yl) dodecanoyl amide]" result="≤ 4 µg/mL"
molecule="CCCCCCCCCCCC(=O)NC1CCNC1 (stereo not shown) [Hydrochloride salt of Compound 1a-1, N-(pyrrolidin-3-yl) dodecanoyl amide]" result="≤ 4 µg/mL"

Complete the entry with MIC for CCCCCCCCCC(=O)NC1CCNCC1 [Hydrochloride salt of Compound 1b-2, N-(piperidin-4-yl) decanoyl amide]
≤ 128 µg/mL

====

test system: Pseudomonas aeruginosa PAO1; assay: Evaluation test for disinfecting effect, broth dilution method CLSI(M7-A7)2006; assay type: cell-based; settings: PAO1, 18 h, read-out: MIC (µg/mL) S
Counter-ions that a name gives are not always drawn.
observed property: MIC

Below: 2 compounds and their reported MIC.
compound="CCCCCCCCCC(=O)NC1CCNC1 (stereo not drawn) [Hydrochloride salt of Compound 1a-2, N-(pyrrolidin-3-yl) decanoyl amide]" result="≥ 1020 µg/mL"
compound="CCCCCCCCCCCC(=O)NC1CCNC1 (stereo not drawn) [Hydrochloride salt of Compound 1a-1, N-(pyrrolidin-3-yl) dodecanoyl amide]" result="≥ 128 µg/mL"

Complete the entry with MIC for CCCCCCCCCCCC(=O)NC1CCNCC1 [Hydrochloride salt of Compound 1b-1, N-(piperidin-4-yl) dodecanoyl amide]
≥ 128 µg/mL
